Use 1 when the recorded glass transition temperature is no lower than 60 °C; use -1 when it is lower.

Assess whether reported glass transition temperature for *O[Si](*)(C)CCCC(=O)OC (repeat unit) sits at 60 °C or higher.
-1

Please tell me: is the compound *N(CCC)[Si](C)(C)C[Si](*)(C)C (repeat unit) at or over 60 °C in terms of glass transition temperature?
-1

For this compound, is measured glass transition temperature 60 °C or higher? *Oc1ccc(C(c2ccc(OC3(F)C(*)(F)C(F)(F)C3(F)F)cc2)(C(F)(F)F)C(F)(F)F)cc1 (repeat unit)
1

Please check the record */C=C/C1CC(*)C(C#N)C1 (repeat unit) and state if its glass transition temperature is at or above 60 °C.
1

Check if glass transition temperature >= 60 °C (inclusive). Item: *CCOC(=O)c1ccc(C(=O)O*)c2ccccc12 (repeat unit) [Poly(ethylene- 1 ,4-naphthalenedicarboxylate) ]
1

Textbook exercise: given the entry *Oc1ccc(C(c2ccc(Oc3c(F)c(F)c(C(=O)c4c(F)c(F)c(*)c(F)c4F)c(F)c3F)cc2)(C(F)(F)F)C(F)(F)F)cc1 (repeat unit) , state whether its glass transition temperature is greater than or equal to 60 °C.
1

Reported glass transition temperature reaches at least 60 °C for *c1ccc(-c2nc3ccc(-c4ccc5nc(*)c(-c6ccccc6)c(-c6ccccc6)c5c4)cc3c(-c3ccccc3)c2-c2ccccc2)cc1 (repeat unit) ?
1

Quick check, glass transition temperature >= 60 °C? *CCCNC(=O)CCCCC(=O)NCCCN(*)C (repeat unit)
-1

Check if glass transition temperature >= 60 °C (inclusive). Item: *c1ccc(-c2ccc(-c3nc4cc(Oc5ccc6nc(-c7ccccc7)c(*)nc6c5)ccc4nc3-c3ccccc3)cc2)cc1 (repeat unit)
1

Please check the record *c1ccc(Oc2ccc(C3(c4ccc(Oc5ccc(-c6ccc(*)s6)cc5C(F)(F)F)cc4)c4ccccc4-c4ccccc43)cc2)c(C(F)(F)F)c1 (repeat unit) and state if its glass transition temperature is at or above 60 °C.
1

Check the entry *CCOC(=O)c1ccc(-c2ccc(-c3ccc(C(=O)O*)cc3)cc2)cc1 (repeat unit) : does glass transition temperature equal or exceed 60 °C?
1

Quick check: does *CC(*)(C)C(=O)OCCCCCC(=O)Oc1ccc(OC(=O)c2ccc(OCC)cc2)cc1 (repeat unit) have glass transition temperature greater than or equal to 60 °C?
-1

Quick check, glass transition temperature >= 60 °C? *CCCCCCOC(=O)CCCCCCCCCCCCCCCCCCC(=O)OCCCCCCN1C(=O)c2ccc(S(=O)(=O)c3ccc4c(c3)C(=O)N(*)C4=O)cc2C1=O (repeat unit)
-1

Evaluate *CCCCCCCCN1C(=O)c2ccc(C(=O)c3ccc4c(c3)C(=O)N(*)C4=O)cc2C1=O (repeat unit) : glass transition temperature at minimum 60 °C?
1

Evaluate *c1ccc(S(=O)(=O)c2ccc(-n3nc(-c4ccc(Oc5ccc(-c6nn(*)c(=O)c7ccccc67)cc5)cc4)c4ccccc4c3=O)cc2)cc1 (repeat unit) : glass transition temperature at minimum 60 °C?
1

---

Provide the reported glass transition temperature of each item.
Report the figure in °C without appending any unit label.

Looking up *Nc1ccc(C(c2ccc(NC(=O)c3cccc(C(*)=O)c3)cc2)(C(F)(F)F)C(F)(F)F)cc1 (repeat unit) , I found its glass transition temperature recorded as 272.00

Lab note: measured glass transition temperature of *c1ccc2c(c1)C(=O)N(c1c(C)cc(C(c3ccccc3)(c3cc(C)c(N4C(=O)c5ccc(C(*)(C(F)(F)F)C(F)(F)F)cc5C4=O)c(C(C)C)c3)C(F)(F)F)cc1C(C)C)C2=O (repeat unit) was 289.00

Documented glass transition temperature of *CCNC(=O)c1ccc([Si](c2ccccc2)(c2ccccc2)c2ccc(C(=O)NCCN(*)c3ccc(/C=C/c4ccc([N+](=O)[O-])cc4)cc3)cc2)cc1 (repeat unit) : 165.00

---

experimentalReadout: glass transition temperature (°C)
Response body: numeric value in °C, unit text excluded.

Entry *CCCCOC(=O)Nc1ccc(C)c(NC(=O)OCCCCn2c3ccccc3c3cc(/C=C(\C#N)C(=O)OCCCCCCOC(=O)/C(C#N)=C/c4ccc5c(c4)c4ccccc4n5*)ccc32)c1 (repeat unit) — recorded glass transition temperature = 117.00

The molecule identified as *C(=O)c1ccc2c(c1)C(=O)N(c1c(C(C)C)cc(Cc3cc(C(C)C)c(N4C(=O)c5ccc(*)cc5C4=O)c(C(C)C)c3)cc1C(C)C)C2=O (repeat unit) registered its glass transition temperature at 263.00

Consider *c1ccc(-c2ccc(-c3cc(-c4ccc(Oc5ccc(-c6cc(*)nc7ccccc67)cc5)cc4)c4ccccc4n3)cc2)cc1 (repeat unit) . Its measured glass transition temperature is 326.00

GET /value?item= *C(=O)Nc1cccc(NC(=O)c2ccc3c(c2)C(=O)N(c2ccc(Oc4ccc5ccc(Oc6ccc(N7C(=O)c8ccc(*)cc8C7=O)cc6)cc5c4)cc2)C3=O)c1 (repeat unit) &field=glass transition temperature returns 286.00

Documented glass transition temperature of *Oc1ccc(S(=O)(=O)c2ccc(Oc3ccc(NC(=O)c4ccc(-c5ccc(C(=O)Nc6ccc(*)cc6)c(C)c5)cc4C)cc3)cc2)cc1 (repeat unit) : 251.00

Form: molecule = *CCN(CCN1C(=O)c2ccc(C(c3ccc4c(c3)C(=O)N(*)C4=O)(C(F)(F)F)C(F)(F)F)cc2C1=O)c1ccc(/C=C/C2=CC(=C(C#N)C#N)CC(C)(C)C2)cc1 (repeat unit) ; glass transition temperature = 224.00

The measured glass transition temperature associated with *CC(*)c1cccc(Br)c1 (repeat unit) reads 102.00

Entry *Oc1ccc(CC(NC(=O)Cc2ccc(OC(=O)COCC(*)=O)cc2)C(=O)OCC)cc1 (repeat unit) ; glass transition temperature = 66.00

The reported value for *c1ccc([Si](c2ccccc2)(c2ccccc2)c2ccc(-c3nnc(-c4ccc(-c5nnc(*)o5)nc4)o3)cc2)cc1 (repeat unit) in terms of glass transition temperature is 272.00

The molecule listed as *C(=O)Nc1ccc(-c2sc(-c3ccc(NC(=O)c4ccc5c(c4)C(=O)N(c4ccc(Oc6ccc7ccc(Oc8ccc(N9C(=O)c%10ccc(*)cc%10C9=O)cc8)cc7c6)cc4)C5=O)cc3)c(-c3ccccc3)c2-c2ccccc2)cc1 (repeat unit) shows glass transition temperature equal to 311.00

Memo: *CCCCCCCCCCOc1ccc(N(c2ccccc2)c2ccc(-c3ccc(N(c4ccccc4)c4ccc(O*)cc4)cc3)cc2)cc1 (repeat unit) , reported glass transition temperature: 90.00

// *c1cc(-c2nc3ccccc3oc2=O)cc(-n2c(=O)c3cc4c(=O)n(*)c(=O)c4cc3c2=O)c1 (repeat unit) : glass transition temperature value = 130.00

# molecule *Cc1ccc(COP(=O)(/N=N/c2ccc(-c3ccc(/N=N/P(=O)(O*)OC)cc3)cc2)OC)cc1 (repeat unit) ; its glass transition temperature = 48.00

// sample */C(C#N)=C/c1cc(OCC(CC)CCCC)c(/C=C(\C#N)c2ccc3c4ccc(*)cc4n(CC(CC)CCCC)c3c2)cc1OCC(CC)CCCC (repeat unit) , its glass transition temperature was 72.00

So for *CC(C)(C)CS(=O)(=O)CC(C)(C)COC(=O)NCCCCCCNC(=O)O* (repeat unit) , the logged glass transition temperature turned out to be 30.00

Summary for this molecule, *Oc1ccc(CC(NC(=O)CCc2ccc(OC(=O)CCC(C)CC(*)=O)cc2)C(=O)OCc2ccccc2)cc1 (repeat unit) : glass transition temperature is 55.00

Measured glass transition temperature of *CC(*)(C)C(=O)OCCOCCOc1ccc(/N=N/c2ccc(C#N)cc2)cc1 (repeat unit) : 57.00

GET /value?item= *CCN(CCOC(=O)Nc1cccc(NC(=O)O*)c1C)c1ccc(/C=C/c2ccc([N+](=O)[O-])cc2)cc1 (repeat unit) &field=glass transition temperature returns 123.00

response.value for *CCCCCCCCCCCCOC(=O)NCCCCCCNC(=O)O* (repeat unit) (field: glass transition temperature) = 36.00

Entry under test: *OC1C(COC(C)=O)OC(*)C(OC(C)=O)C1OC(C)=O (repeat unit) . Its glass transition temperature was 178.00

glass transition temperature recorded for this molecule, *Nc1cccc(C(=O)c2ccc(NC(=O)c3cccc(C(=O)c4ccc(C(*)=O)cc4)c3)cc2)c1 (repeat unit) , is 215.00

glass transition temperature recorded for this molecule, *c1ccc(-c2c(-c3ccccc3)nc3ccc(Oc4ccc5nc(-c6ccccc6)c(*)c(-c6ccccc6)c5c4)cc3c2-c2ccccc2)cc1 (repeat unit) , is 311.00

The value of glass transition temperature measured for the molecule *CCCCCOC(=O)c1ccc2cc(C(=O)O*)ccc2c1 (repeat unit) turned out to be 58.50

Measured glass transition temperature, *CC(*)C(=O)N1CCCCC1 (repeat unit) : 108.00

Form: molecule = *CC(*)CCCCCCCCCCCCCCCC (repeat unit) ; glass transition temperature = 55.00

Query *c1ccc2c(c1)C(=O)N(c1cc(C(c3ccc(OCCN(CC)c4ccc(/N=N/c5ccc([N+](=O)[O-])cc5)cc4)c(N4C(=O)c5ccc(C(*)(C(F)(F)F)C(F)(F)F)cc5C4=O)c3)(C(F)(F)F)C(F)(F)F)ccc1OCCN(CC)c1ccc(/N=N/c3ccc([N+](=O)[O-])cc3)cc1)C2=O (repeat unit) yields glass transition temperature of 199.00

Noted for *CC(*)c1ccccc1C(=O)OCCC(C)C (repeat unit) : its glass transition temperature reads 68.00

For reference, reported glass transition temperature for *CC(*)CNc1ccc([N+](=O)[O-])cc1 (repeat unit) stands at 144.00
